Ref: ChEMBL document CHEMBL5724914

- TEST_CONDITIONS: human gut metagenome, 24 h, 2 µM; further: call rule not given here

COMPOUND	Bacterial Biotransformation
CCN(C(C)=O)c1cccc(-c2ccnc3c(C#N)cnn23)c1	Compound metabolized
CC(C)c1nc(N(C)S(C)(=O)=O)nc(-c2ccc(F)cc2)c1/C=C/[C@@H](O)C[C@@H](O)CC(=O)[O-].CC(C)c1nc(N(C)S(C)(=O)=O)nc(-c2ccc(F)cc2)c1/C=C/[C@@H](O)C[C@@H](O)CC(=O)[O-].[Ca+2]	Compound metabolized
O=C(NC(Cc1cc(=O)[nH]c2ccccc12)C(=O)O)c1ccc(Cl)cc1 (configuration not stated) [REBAMIPIDE]	Compound metabolized
CCOC(=O)C1=C[C@]2(CC)CCCN3CCc4c(n1c1ccccc41)[C@@H]32	Compound metabolized
O=C1N=C([O-])NC1(c1ccccc1)c1ccccc1.[Na+] [PHENYTOIN SODIUM]	Compound metabolized
CC(C)[C@H]1CC[C@H](C(=O)N[C@H](Cc2ccccc2)C(=O)O)CC1 [NATEGLINIDE]	Compound metabolized
